tested_on: human ether-à-go-go-related gene (hERG) potassium channel (human, UniProt Q12809)
Sequence (Q12809 whole entry, looked up): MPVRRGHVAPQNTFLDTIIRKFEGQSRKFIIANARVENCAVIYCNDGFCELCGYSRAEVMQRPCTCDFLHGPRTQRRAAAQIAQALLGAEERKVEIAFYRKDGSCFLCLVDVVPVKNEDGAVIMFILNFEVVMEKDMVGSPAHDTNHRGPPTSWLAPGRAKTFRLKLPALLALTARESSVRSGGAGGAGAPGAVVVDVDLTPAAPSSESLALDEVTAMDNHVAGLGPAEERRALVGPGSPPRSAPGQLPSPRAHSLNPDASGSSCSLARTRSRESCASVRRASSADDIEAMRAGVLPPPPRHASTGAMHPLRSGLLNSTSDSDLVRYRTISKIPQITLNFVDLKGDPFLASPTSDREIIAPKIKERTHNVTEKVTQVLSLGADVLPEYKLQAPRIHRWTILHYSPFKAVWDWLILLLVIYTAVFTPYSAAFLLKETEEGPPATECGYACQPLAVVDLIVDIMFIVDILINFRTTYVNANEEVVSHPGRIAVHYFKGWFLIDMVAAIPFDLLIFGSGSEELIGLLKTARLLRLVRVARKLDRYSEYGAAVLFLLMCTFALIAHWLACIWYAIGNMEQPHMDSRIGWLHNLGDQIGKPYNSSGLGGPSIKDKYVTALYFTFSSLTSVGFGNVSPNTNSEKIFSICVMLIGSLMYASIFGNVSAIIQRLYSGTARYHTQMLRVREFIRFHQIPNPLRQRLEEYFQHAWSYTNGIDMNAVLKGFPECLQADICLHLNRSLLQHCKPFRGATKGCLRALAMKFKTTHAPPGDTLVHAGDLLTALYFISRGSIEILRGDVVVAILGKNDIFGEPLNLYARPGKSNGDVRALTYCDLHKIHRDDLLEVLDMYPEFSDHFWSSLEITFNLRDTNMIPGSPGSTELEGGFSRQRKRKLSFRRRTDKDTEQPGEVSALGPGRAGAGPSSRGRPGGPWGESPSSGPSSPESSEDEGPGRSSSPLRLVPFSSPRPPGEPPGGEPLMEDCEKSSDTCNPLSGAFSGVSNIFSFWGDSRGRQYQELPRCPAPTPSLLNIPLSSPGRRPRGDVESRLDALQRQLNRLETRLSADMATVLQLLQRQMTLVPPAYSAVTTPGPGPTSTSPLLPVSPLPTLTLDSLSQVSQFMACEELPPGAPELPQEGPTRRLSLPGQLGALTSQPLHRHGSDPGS
assay: primary screen, population patch clamp on CHO cells stably expressing hERG; higher = less effect of the substance;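 further: peak tail current of the secondary pulse compared with the same well before compound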
Among all 310,000 compounds or so, about 14,000 (4.5%) showed an effect of 50% or more. The effect is printed as a negative number. For the sample, strong results were picked, then their nearest neighbours and some compounds at random.
Answer each item with its documented hERG current change (%, negative = inhibition) at 10uM.
One number for each entry, in %.

Observe how each entry below is paired with its result.
Cc1ccc(Cn2c(C3CCCN3c3nc(C)cs3)nc3cc(C(F)(F)F)ccc32)cc1 (stereo not drawn)	0.159
OCCCn1c(CCNc2nc(-c3ccc(Cl)cc3)cs2)nc2cc(C(F)(F)F)ccc21	-0.705
OCCCn1c(C2CCCN2c2nc(-c3ccc(F)cc3)cs2)nc2cc(C(F)(F)F)ccc21 (stereo not drawn)	-21
OCCOCCn1c(C2CCCN2c2nc(-c3ccc(F)cc3)cs2)nc2cc(Cl)c(Cl)cc21 (stereo not drawn)	-28.7
OCCCn1c(CCNc2nc(-c3ccc(F)cc3)cs2)nc2cc(C(F)(F)F)ccc21	-32.3
CCN1CCC(O)(c2ccccc2)C(C(=O)c2ccccc2)C1 (stereo not drawn)	-7.58
CN1CCC(O)(c2ccc(Cl)cc2)C(C(=O)c2ccc(Cl)cc2)C1 (stereo not drawn)	-67.7
S=C(Nc1ccccc1)Nc1nccs1	24.4

**Q:** Given the molecule CN1CCC(O)(c2ccccc2)C(C(=O)c2ccccc2)C1 (stereo not drawn) , what is its reported hERG current change (%, negative = inhibition) at 10uM?
**A:** -2.34

---

tested_on: human ether-à-go-go-related gene (hERG) potassium channel (human, UniProt Q12809)
assay: primary screen, population patch clamp on CHO cells stably expressing hERG; higher = less effect of the substance
About 14,000 (4.5%) of roughly 310,000 compounds showed an effect of 50% or more. The effect is printed as a negative number. For the sample, strong results were picked, then their nearest neighbours and some compounds at random.
test_readout: hERG current change (%, negative = inhibition) at 10uM (%)
One number for each entry, in %.

Sample records with hERG current change (%, negative = inhibition) at 10uM:
COc1cccc(C(=O)NC(=S)Nc2ccc3[nH]c(=O)[nH]c3c2)c1	-70.3
Clc1ccccc1OCCN1CCCCC1	-16.2
CCCCOc1ccc(C(=O)NCC(=O)OC2CCOC2=O)cc1 (stereo not drawn)	4.84
Clc1ccccc1OCCCCN1CCNCC1.O=C(O)C(=O)O	12.7
CCN1CCN(CCOc2ccccc2OCc2ccccc2)CC1.O=C(O)C(=O)O	-73.2

Now, please, on to the next compound.
**Q:** Give human ether-à-go-go-related gene (hERG) potassium channel (human, UniProt Q12809) hERG current change (%, negative = inhibition) at 10uM for Cc1ccccc1OCCN1CCC(Cc2ccccc2)CC1.O=C(O)C(=O)O
**A:** -58.5

---

tested_on: human ether-à-go-go-related gene (hERG) potassium channel (human)
assay: primary screen, population patch clamp on CHO cells stably expressing hERG; higher = less effect of the substance
Method: Briefly, Chinese hamster ovary (CHO) cells stably expressing the hERG channel were dislodged from tissue culture flasks and dispensed into PPC plates. […] During the recording, background leak currents were estimated by a 100 ms step to -80 mV from an initial holding potential of -70 mV and subtracted from the subsequent current measurement. The campaign was conducted in two phases using slight differences in recording protocol. […]
In all, about 310,000 compounds went through this assay and about 14,000 (4.5%) showed an effect of 50% or more. The effect is printed as a negative number. Only a selection was taken, and strong results are over-represented in it overall.
test_readout: hERG current change (%, negative = inhibition) at 10uM (%)
Numbers only, in %.

Cc1cccc(C)c1NS(=O)(=O)c1ccc(NC(=O)c2ccc(Cl)c([N+](=O)[O-])c2)cc1	13.9
O=C(NCc1ccc2c(c1)OCO2)c1nn(-c2ccccc2)c(=O)c2ccccc12	-35.1
CCN(CC)CCn1nc2c3c(cccc3c1=O)-c1ccccc1-2	-70.2

Would you mind listing hERG current change (%, negative = inhibition) at 10uM for each of the following compounds?
1. Cc1ccc(S(=O)(=O)N(CCCO)Cc2cc3c(C)ccc(C)c3[nH]c2=O)cc1
2. O=c1c2cccc3c2c(nn1CN1CCOCC1)-c1ccccc1-3

**A:**
[-45.9, -11.5]

// input: 4 compounds below; output: hERG current change (%, negative = inhibition) at 10uM for each
1. Cc1cccc(Cl)c1NC(=S)NCCc1ccccn1
2. O=C(O)Cn1nc2c3c(cccc3c1=O)-c1ccccc1-2
3. Cc1ccc(S(=O)(=O)N(CCCN2CCCC2=O)Cc2cc3c(C)ccc(C)c3[nH]c2=O)cc1
4. Nc1nnnn1/N=C/c1ccccc1OCc1ccccc1

**A:**
1. 11.9
2. 8.18
3. -64
4. 19

---

tested_on: human ether-à-go-go-related gene (hERG) potassium channel (human, UniProt Q12809)
assay: primary screen, population patch clamp on CHO cells stably expressing hERG; higher = less effect of the substance
In all, about 310,000 compounds went through this assay and about 14,000 (4.5%) showed an effect of 50% or more. The effect is printed as a negative number. The list comes from a sample in which strong results are over-represented; it also holds close analogues and randomly drawn compounds.
test_readout: hERG current change (%, negative = inhibition) at 10uM (%)
Give bare numbers, in %.

Worked cases, answers included:
COc1ccc(NC(=O)c2cccnc2Sc2ccccc2)c(OC)c1	7.52
COc1ccc(CCNC(=O)c2sc3cc(C)ccc3c2Cl)cc1	3.77
O=C(CSc1nn(-c2ccccc2)c(=S)s1)Nn1cnnc1	14.8
CC(c1ccccc1)C1C(C#N)=C(N)OC2=C1C(=O)CCC2 (stereo not shown)	-6.39
CC(C)CN(CC(C)C)C(=O)CN1c2cccc3cccc(c23)S1(=O)=O	18.1

Can you give me hERG current change (%, negative = inhibition) at 10uM for all of these, one by one?
1. CCOC(=O)CC(=O)CSc1nc2c(sc(=S)n2-c2ccc(C)c(C)c2)c(=O)[nH]1
2. CCCN(CCC)Cc1cc(=O)oc2cc3c(cc12)CCC3

**A:**
1: -10.7; 2: -9.37

---

tested_on: human ether-à-go-go-related gene (hERG) potassium channel (human, UniProt Q12809)
assay: primary screen, population patch clamp on CHO cells stably expressing hERG; higher = less effect of the substance
Hit rate of the full screen: of about 310,000 compounds, about 14,000 (4.5%) showed an effect of 50% or more. Effects have a minus sign here. The sample holds strong results, similar compounds and a random draw of the others, so the mix is not that of the screen.
Consider the following compounds; for each one, report its hERG current change (%, negative = inhibition) at 10uM.
Numbers only, in %.

Below: 4 compounds and their reported hERG current change (%, negative = inhibition) at 10uM.
CC1CCN(C(=O)C(NS(=O)(=O)c2cccc3nsnc23)C(C)C)CC1 (centres unmarked)	-5.48
CN(CC(=O)N1CCN(c2ccccn2)CC1)S(=O)(=O)c1cccc2nsnc12	-23.6
COC(=O)c1ccc(NC(=O)N2CCC(O)(c3cccnc3)CC2)cc1	9.11
CCOC(=O)N1CCN(C(=O)C(NS(=O)(=O)c2cccc3nsnc23)c2ccccc2)CC1 (centres unmarked)	-47.1

**Q:** Bench note: what hERG current change (%, negative = inhibition) at 10uM did CC1CCN(C(=O)C(NS(=O)(=O)c2cccc3nsnc23)c2ccccc2)CC1 (centres unmarked) show?
**A:** -69.5

---

tested_on: human ether-à-go-go-related gene (hERG) potassium channel (human)
assay: primary screen, population patch clamp on CHO cells stably expressing hERG; higher = less effect of the substance
Among all 310,000 compounds or so, about 14,000 (4.5%) showed an effect of 50% or more. Effects have a minus sign here. What follows is part of a selection rich in strong results, with near analogues and random picks from the rest.
test_readout: hERG current change (%, negative = inhibition) at 10uM (%)
Numbers only, in %.

Take a look at these entries with their results.
Cc1ccc(/C=C/C(=O)NCCc2c[nH]c3ccccc23)o1	-7.78
CCCCn1nc(C(=O)N[C@@H](CCSC)c2nc3ccccc3[nH]2)c2ccccc2c1=O	-28.7
CC(=O)n1nc(-c2cccnc2)nc1N	-7.75
COc1ccc(N2CCN(C(=O)c3ccc(SC)cc3OC)CC2)cc1	-55.3
COc1cc(SC)ccc1C(=O)N1CCN(Cc2ccc3c(c2)OCO3)CC1	-34.3

Hey, can you go through the list below and give me hERG current change (%, negative = inhibition) at 10uM for every item?
1. Cc1nnc(-c2ccccc2)nc1N1CCOCC1
2. CC1=CC(C)C2COC(c3ccc[n+](C)c3)C1C2C.[I-] (stereo not shown)
3. Cc1cc(C=C2C(=O)N(C)C(=O)N(C)C2=O)c(C)n1-c1ccccc1
4. Cc1ccc(C(=O)/C=C/Nc2ccccn2)cc1

**A:**
-10.2
14.3
17.5
-1.05

**Q:** Query: hERG current change (%, negative = inhibition) at 10uM; subject: CCOc1cccc(C2C(C(=O)c3ccc(C)o3)=C(O)C(=O)N2c2nccs2)c1 (stereo not shown)
**A:** 0.752
